- Tested on: transgenic rice Line 29
- Measurement Protocol: Response of rice plants to various herbicides, seed set in greenhouse
- Format: in vivo
- Measurement Conditions: post-emergence, 6× rate, 1× g ai/ha: PURSUIT 62.5, CADRE 32, ARSENAL 24, RAPTOR 32, SCEPTER 125, ACCENT 35, CLASSIC 5, AC322,140 20, LONDAX 68
Kindly supply the reported % seed-set values for the records listed here.

| Compound | % seed-set |
| --- | --- |
| CC(C)C1(C)N=C(c2ncccc2C(=O)O)NC1=O (stereo not drawn) | 19% |
| CC(C)C1(C)N=C(c2nc3ccccc3cc2C(=O)O)NC1=O (stereo not drawn) | 88% |
| COc1cc(OC)nc(NC(=O)NS(=O)(=O)c2ncccc2C(=O)N(C)C)n1 | 0% |
| CCc1cnc(C2=NC(C)(C(C)C)C(=O)N2)c(C(=O)O)c1 (stereo not drawn) | 87% |
| CCOC(=O)c1ccccc1S(=O)(=O)NC(=O)Nc1nc(Cl)cc(OC)n1 | 4% |
| COC(=O)c1ccccc1CS(=O)(=O)NC(=O)Nc1nc(OC)cc(OC)n1 | 86% |

Required: % seed-set, one value per compound below.
1. Cc1cnc(C2=NC(=O)C(C)(C(C)C)N2)c(C(=O)O)c1 (stereo not drawn)
2. COCc1cnc(C2=NC(C)(C(C)C)C(=O)N2)c(C(=O)O)c1 (stereo not drawn)
3. COc1cc(OC)nc(NC(=O)NS(=O)(=O)Nc2ccccc2C(=O)C2CC2)n1

A.
1: 80%; 2: 80%; 3: 87%

----------
Kindly supply the reported % seed-set values for the records listed here.
- System: transgenic rice Line 26
- Measurement Protocol: Response of rice plants to various herbicides, seed set in greenhouse
- Format: in vivo
- Measurement Conditions: post-emergence, 1× rate, 1× g ai/ha: PURSUIT 62.5, CADRE 32, ARSENAL 24, RAPTOR 32, SCEPTER 125, ACCENT 35, CLASSIC 5, AC322,140 20, LONDAX 68
Give your result as the value with the unit written after it.

Recorded % seed-set, per entry:
| Compound | % seed-set |
| --- | --- |
| COc1cc(OC)nc(NC(=O)NS(=O)(=O)Nc2ccccc2C(=O)C2CC2)n1 [AC 322,140, cyclosulfamuron] | 90% |
| CC(C)C1(C)N=C(c2ncccc2C(=O)O)NC1=O (stereo not drawn) [ARSENAL ®, imazapyr] | 85% |
| COC(=O)c1ccccc1CS(=O)(=O)NC(=O)Nc1nc(OC)cc(OC)n1 [LONDAX ®, bensulfuron-methyl] | 80% |
| CC(C)C1(C)N=C(c2nc3ccccc3cc2C(=O)O)NC1=O (stereo not drawn) [SCEPTER ®, imazaquin] | 86% |

Required: % seed-set, one value per compound below.
1. COc1cc(OC)nc(NC(=O)NS(=O)(=O)c2ncccc2C(=O)N(C)C)n1 [ACCENT ®, nicosulfuron]
2. COCc1cnc(C2=NC(C)(C(C)C)C(=O)N2)c(C(=O)O)c1 (stereo not drawn) [RAPTOR ®, imazamox]
3. CCc1cnc(C2=NC(C)(C(C)C)C(=O)N2)c(C(=O)O)c1 (stereo not drawn) [PURSUIT ®, imazethapyr]
4. CCOC(=O)c1ccccc1S(=O)(=O)NC(=O)Nc1nc(Cl)cc(OC)n1 [CLASSIC ®, chlorimuron-ethyl]
5. Cc1cnc(C2=NC(=O)C(C)(C(C)C)N2)c(C(=O)O)c1 (stereo not drawn) [CADRE ®, imazameth]

A.
34%
87%
91%
83%
84%

----------
Kindly supply the reported M.S. values for the records listed here.
- Tested on: transgenic corn hybrid MAa-7
- Measurement Protocol: Greenhouse spray test of corn lines with imidazolinone herbicides, injury score
- Type: in vivo
- Measurement Conditions: MAa-7; 4×: PURSUIT 250, RAPTOR 160, ARSENAL 96, CADRE 400 g/ha; score 0 (dead) to 5 (healthy), 16 days

Required: M.S., one value per compound below.
1. CC(C)C1(C)N=C(c2ncccc2C(=O)O)NC1=O (stereo not shown)
2. CCc1cnc(C2=NC(C)(C(C)C)C(=O)N2)c(C(=O)O)c1 (stereo not shown)
3. COCc1cnc(C2=NC(C)(C(C)C)C(=O)N2)c(C(=O)O)c1 (stereo not shown)
4. Cc1cnc(C2=NC(=O)C(C)(C(C)C)N2)c(C(=O)O)c1 (stereo not shown)

A.
[5, 5, 4.8, 4.8]

----------
- System: transgenic rice Line 26
- Measurement Protocol: Response of rice plants to various herbicides, seed set in greenhouse
- Type: in vivo
- Measurement Conditions: post-emergence, 6× rate, 1× g ai/ha: PURSUIT 62.5, CADRE 32, ARSENAL 24, RAPTOR 32, SCEPTER 125, ACCENT 35, CLASSIC 5, AC322,140 20, LONDAX 68
Kindly supply the reported Total No. of kernels/3 panicles values for the records listed here.
One number for each entry.

Recorded Total No. of kernels/3 panicles, per entry:
| Molecule | Quantity Kind | Endpoint Value |
| --- | --- | --- |
| COCc1cnc(C2=NC(C)(C(C)C)C(=O)N2)c(C(=O)O)c1 (stereo not drawn) | Total No. of kernels/3 panicles | 167 |
| CCc1cnc(C2=NC(C)(C(C)C)C(=O)N2)c(C(=O)O)c1 (stereo not drawn) | Total No. of kernels/3 panicles | 138 |
| CC(C)C1(C)N=C(c2nc3ccccc3cc2C(=O)O)NC1=O (stereo not drawn) | Total No. of kernels/3 panicles | 109 |
| CCOC(=O)c1ccccc1S(=O)(=O)NC(=O)Nc1nc(Cl)cc(OC)n1 | Total No. of kernels/3 panicles | 18 |

Required: Total No. of kernels/3 panicles, one value per molecule below.
1. COC(=O)c1ccccc1CS(=O)(=O)NC(=O)Nc1nc(OC)cc(OC)n1
2. CC(C)C1(C)N=C(c2ncccc2C(=O)O)NC1=O (stereo not drawn)
3. Cc1cnc(C2=NC(=O)C(C)(C(C)C)N2)c(C(=O)O)c1 (stereo not drawn)
4. COc1cc(OC)nc(NC(=O)NS(=O)(=O)Nc2ccccc2C(=O)C2CC2)n1
5. COc1cc(OC)nc(NC(=O)NS(=O)(=O)c2ncccc2C(=O)N(C)C)n1

A.
143
178
169
158
0

----------
- Test system: untransformed Nt rice plants
- Measurement Protocol: Response of rice plants to various herbicides, seed set in greenhouse
- Format: in vivo
- Measurement Conditions: post-emergence, 4× rate, 1× g ai/ha: PURSUIT 62.5, CADRE 32, ARSENAL 24, RAPTOR 32, SCEPTER 125, ACCENT 35, CLASSIC 5, AC322,140 20, LONDAX 68
Quantity Kind: Total No. of kernels/3 panicles
Numbers only.

Required: Total No. of kernels/3 panicles, one value per compound below.
1. Cc1cnc(C2=NC(=O)C(C)(C(C)C)N2)c(C(=O)O)c1 (centres unmarked)
2. COCc1cnc(C2=NC(C)(C(C)C)C(=O)N2)c(C(=O)O)c1 (centres unmarked)
3. COc1cc(OC)nc(NC(=O)NS(=O)(=O)Nc2ccccc2C(=O)C2CC2)n1

A.
[0, 0, 86]

Required: Total No. of kernels/3 panicles, one value per compound below.
1. CCc1cnc(C2=NC(C)(C(C)C)C(=O)N2)c(C(=O)O)c1 (centres unmarked)
2. COC(=O)c1ccccc1CS(=O)(=O)NC(=O)Nc1nc(OC)cc(OC)n1

A.
1: 21; 2: 127
